- Tested on: U251 CNS
- experimental protocol: NCI-60 one-dose screen, 48 h (100 = growth as untreated, 0 = no growth, -100 = all killed)
- measurement context: 10 µM unless noted
The panel holds about 83,000 compounds, 20% with a hit somewhere; the sample as a whole holds those more often. Calls of active or inactive are those of the source. Rule for the calls: active = growth percent below 10; inactive = the rest.
Catalogue of compounds with associated growth

Worked cases, growth given:
CCC(C)c1c(N)n(S(=O)(=O)c2ccc(C)cc2)oc1=O (centres undefined)	104% (inactive)
CCN(CC)CCCC(C)NC(=S)N/N=C(\C)c1ccccn1 (centres undefined)	37.2% (inactive)

Param item = CC(=O)Oc1c(Cl)cccc1-c1ccccc1 ; retrieve measured growth.
90% (inactive)

Using the record for CC(C)OCC(CCl)OC(=O)Nc1ccccc1 (centres undefined) , report its growth.
97.2% (inactive)

For the compound shown here, CC(C)N(CCCC#N)C(C)C , give the reported growth.
92.4% (inactive)

Entry under review: O=C(OC1CCCC1)c1ccccc1Cl . Reported growth?
101% (inactive)

Which growth is listed for CC1(C)CCC(C)(C)NC(=S)N1 ?
104% (inactive)

Which growth value belongs to NC(=O)NCCO ?
92.5% (inactive)

What value of growth has been reported for the following compound? CCCC1OC(c2ccco2)OCC1CC (centres undefined)
94.8% (inactive)

Dear colleague, I am looking for the recorded growth of the following compound: COc1cc(N)c2ncccc2c1Cl
101% (inactive)

What value of growth has been recorded for this entry: C/C(=N\Nc1ccc([N+](=O)[O-])cc1[N+](=O)[O-])c1ccc(Br)cc1
92.2% (inactive)

Which measured growth value corresponds to CC(C)c1ncc([N+](=O)[O-])n1C ?
104% (inactive)

// query growth value for entry CCOc1ccccc1NC(=O)CCl
29% (inactive)

Origin of values: PubChem BioAssay (NCI)
